# Measured On: CDK4/cyclin D3 (UniProt P11802 1-303; P30281 1-292)
# Sequence (P11802 whole entry, chain 1 of 2): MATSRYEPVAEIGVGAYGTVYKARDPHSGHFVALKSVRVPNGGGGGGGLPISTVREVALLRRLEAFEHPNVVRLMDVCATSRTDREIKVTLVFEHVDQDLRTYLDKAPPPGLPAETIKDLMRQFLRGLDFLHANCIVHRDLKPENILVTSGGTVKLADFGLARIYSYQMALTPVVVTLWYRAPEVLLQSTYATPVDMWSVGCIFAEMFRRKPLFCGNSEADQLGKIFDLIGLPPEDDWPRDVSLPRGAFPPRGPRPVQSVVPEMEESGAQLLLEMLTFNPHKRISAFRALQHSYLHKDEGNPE
# Sequence (P30281 whole entry, chain 2 of 2): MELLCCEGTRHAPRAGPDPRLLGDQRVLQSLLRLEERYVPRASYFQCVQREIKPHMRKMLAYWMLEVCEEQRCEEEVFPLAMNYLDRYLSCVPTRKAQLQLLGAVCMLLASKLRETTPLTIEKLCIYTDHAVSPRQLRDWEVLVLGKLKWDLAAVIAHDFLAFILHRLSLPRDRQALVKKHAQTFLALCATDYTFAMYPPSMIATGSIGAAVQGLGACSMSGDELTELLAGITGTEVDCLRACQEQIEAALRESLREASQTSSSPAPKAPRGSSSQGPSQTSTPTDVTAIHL
# Procedure Summary: cell-based or functional assay
No end group written: not given here. *: point of attachment. aminohexane = linker joining biotin to the N-terminal residue; Biotin = O=C1N[C@H]2[C@H](CS[C@H]2CCCCC(=O)*)N1
// -1 strictly below 50% in relative luminescence intensity (CDK6 = 100%); 1 otherwise

Does {Biotin-aminohexane}-GGGKAPLTPKDAD [Polypeptide 22] have a reported relative luminescence intensity (CDK6 = 100%) of at least 50%?
-1

Determine whether this binder has relative luminescence intensity (CDK6 = 100%) no lower than 50%: {Biotin-aminohexane}-GGGKAPLTPKKAK [Comparative Polypeptide 5]
1
